# Test system: MDA-MB-468
# procedure_text: SRB anticancer assay, breast
# Assay type: cell-based, human
# Design: unit not given here
# experimental_parameters: present compounds
Item-by-item account of Log10GI50
Form: value (number only, do not type unit).

COc1cc2nc(-c3ccc(-n4cncc4-c4ccc(N)cc4)cc3)sc2c(OC)c1OC | −5.74
COc1cc(OC)cc(-c2cncn2-c2ccc(-c3nc4cc(OC)c(OC)c(OC)c4s3)cc2)c1 | −4.97
COc1cc(-c2cncn2-c2ccc(-c3nc4ccc(F)cc4s3)cc2)ccc1F | −4.96

Kindly consider the entry below.
input: Requested field: Log10GI50. Item: "COc1ccc(-c2cncn2-c2ccc(-c3nc4cc(OC)c(OC)c(OC)c4s3)cc2)cc1N"
output: −5.07

###

# Tested on: DU-145
# procedure_text: SRB anticancer assay, prostate
# Type: cell-based, human
# experimental_parameters: Homo sapiens, DU-145, 48 h
recorded_endpoint: GI50 (µM)
Hi! Could you send only the number? It should be in µM, unit omitted.

input: Requested field: GI50. Item: "COc1cc(-c2cncn2-c2ccc(-c3nc4ccc(F)cc4s3)cc2)ccc1F"
output: 14.3

input: Requested field: GI50. Item: "COc1cc(OC)c2sc(-c3ccc(-n4cncc4-c4ccc(OC)c(OC)c4)cc3)nc2c1"
output: 27.9

input: Requested field: GI50. Item: "COc1cc2nc(-c3ccc(-n4cncc4-c4ccc(N)cc4)cc3)sc2c(OC)c1OC"
output: 7.25

input: Requested field: GI50. Item: "COc1ccc(-c2cncn2-c2ccc(-c3nc4cc(OC)c(OC)c(OC)c4s3)cc2)cc1N"
output: 6.38

input: Requested field: GI50. Item: "COc1cc(OC)cc(-c2cncn2-c2ccc(-c3nc4cc(OC)c(OC)c(OC)c4s3)cc2)c1"
output: 31.1

###

# Tested on: SR
# procedure_text: SRB anticancer assay, leukemia
# Format: cell-based, human
# experimental_parameters: Homo sapiens, 48 h
recorded_endpoint: GI50 (µM)
Hi! Could you send only the number? It should be in µM, unit omitted.

COc1cc2nc(-c3ccc(-n4cncc4-c4ccc(N)cc4)cc3)sc2c(OC)c1OC | 1.4
COc1cc(OC)c2sc(-c3ccc(-n4cncc4-c4ccc(OC)c(OC)c4)cc3)nc2c1 | 3.03
COc1cc(-c2cncn2-c2ccc(-c3nc4ccc(F)cc4s3)cc2)ccc1F | 4.99
COc1cc(OC)cc(-c2cncn2-c2ccc(-c3nc4cc(OC)c(OC)c(OC)c4s3)cc2)c1 | 7.14
COc1cc(OC)cc(-c2cncn2-c2ccc(-c3nc4cc(OC)cc(OC)c4s3)cc2)c1 | 3.3
COc1cc(OC)c2sc(-c3ccc(-n4cncc4-c4cc(OC)c(OC)c(OC)c4)cc3)nc2c1 | 3.24

Kindly consider the entry below.
input: Requested field: GI50. Item: "COc1ccc(-c2cncn2-c2ccc(-c3nc4cc(OC)c(OC)c(OC)c4s3)cc2)cc1N"
output: 3.43

###

Item-by-item account of Log10GI50
# Test system: SNB-75
# procedure_text: SRB anticancer assay, CNS
# Assay type: cell-based, human
# Set-up: unit not given here
# experimental_parameters: SNB-75; present compounds

input: Requested field: Log10GI50. Item: COc1ccc(-c2cncn2-c2ccc(-c3nc4cc(OC)c(OC)c(OC)c4s3)cc2)cc1N [Compound 7j]
output: −4.28

input: Requested field: Log10GI50. Item: COc1cc2nc(-c3ccc(-n4cncc4-c4ccc(N)cc4)cc3)sc2c(OC)c1OC [Compound 7h]
output: −5.23

input: Requested field: Log10GI50. Item: COc1cc(-c2cncn2-c2ccc(-c3nc4ccc(F)cc4s3)cc2)ccc1F [Compound 4c]
output: −4.69

input: Requested field: Log10GI50. Item: COc1cc(OC)cc(-c2cncn2-c2ccc(-c3nc4cc(OC)c(OC)c(OC)c4s3)cc2)c1 [Compound 7d]
output: −4.82
